assay: chemical genetic growth profiling, strain panel (AID 1159580);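 note: tested at 20 µM; growth read once vehicle control cultures reached saturation at 30 °C; 1 = growth at the plate median or of vehicle wells; lower values mean less growth of the strain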; conditions: S. cerevisiae deletion strains, growth OD, locus YCL069W, strain vba3
In all, about 5,500 compounds went through this assay and about 2,000 (36%) were called active. Inconclusive results (about 18%) are left out. Cut-off read from the data, not from the text of the source: active = normalized growth mostly below about 0.91 (no sharp cut-off); inconclusive = no clear call, values can overlap the other calls; inactive = mostly above about 0.92. The list shows a part of the results.
Hi there, use one of these labels in your reply, thanks! yes (1) = active, no (0) = inactive

Use these answered entries as a reference point.
[[record]]
compound = "CC(=O)OCC(=O)[C@@]1(O)[C@H](OC(C)=O)CC2C3CCC4=CC(=O)C=C[C@]4(C)[C@@]3(F)[C@@H](O)C[C@@]21C (stereo not given in full)"
class = "no (0)"

[[record]]
compound = "O=C(O)c1ccccc1C(=O)Nc1ccc(S(=O)(=O)Nc2nccs2)cc1"
class = "no (0)"

[[record]]
compound = "COc1cc(C)c(C(=O)Oc2cc(C)c(C(=O)O)c(O)c2C)c(OC)c1C"
class = "no (0)"

[[record]]
compound = "CN(C)C(=O)Nc1ccc(Cl)c(Cl)c1"
class = "no (0)"


Inquiry: Tell me the recorded outcome of this test for COC(=O)CCC(C)C1CCC2C3CC[C@@H]4C[C@H](O)CC[C@]4(C)C3C[C@H](O)[C@]12C (stereo not given in full) .
Reply text: no (0)

Inquiry: Which outcome was entered for the compound CSc1ccc2c(c1)N(CCC1CCCCN1C)c1ccccc1S2 (stereo not given) in this test?
Reply text: no (0)

Inquiry: Each compound tested received a call. Report the one for CC(CN(C)C)CN1c2ccccc2CCc2ccccc21 (stereo not given) .
Reply text: no (0)

Inquiry: Record lookup: outcome of this test for COc1cc([C@@H]2c3cc4c(cc3[C@H](OC(C)=O)[C@H]3COC(=O)[C@@H]23)OCO4)cc(OC)c1OC ?
Reply text: no (0)

Inquiry: Fill in: this test's call for O=c1[nH]cnc2[nH]ncc12 is ___
Reply text: no (0)

Inquiry: What did this assay record as the result for NNCCc1ccccc1 ?
Reply text: no (0)

Inquiry: What classification did COc1c2ccccc2nc2occc12 end up with in this test?
Reply text: yes (1)
